Entry source: paper PMC12030706

Form field: tissue to tissue ratio at 1 h (one value per entry).
# assay notes: Ex vivo biodistribution in PC-3 tumor-bearing mice
# run conditions: male, NOD.Cg-Rag1^tm1Mom Il2rg^tm1Wjl/SzJ (NRG), mouse, tumor/pancreas, total radioactivity, Tumor/pancreas uptake ratio, 1 h post-injection
Numbered stars: 1 amine (or outer) side, 2 acyl side, 3 side chain; on linkers, the order of the positions; unused ones are H or OH. Square brackets hold non-standard residues; d marks the D form. Peptide text beside a SMILES is read from it. * marks the point of attachment. DOTA = O=C(O)CN1CCN(CC(=O)O)CCN(CC(=O)*)CCN(CC(=O)O)CC1; NMeH = CN[C@@H](Cc1c[nH]cn1)C(=O)O; X1 = O=C(CN1CCC(N[*:1])CC1)[*:2]; Tle = CC(C)(C)[C@H](N)C(=O)O; Thz = O=C(O)[C@@H]1CSCN1

molecule	tissue to tissue ratio at 1 h
CC(C)C[C@H](NC(=O)[C@H](Cc1cnc[nH]1)N(C)C(=O)CNC(=O)[C@@H](NC(=O)[C@H](C)NC(=O)[C@H](Cc1c[nH]c2ccccc12)NC(=O)[C@H](CCC(N)=O)NC(=O)[C@@H](Cc1ccccc1)NC(=O)CN1CCC(NC(=O)CN2CCN(CC(=O)O)CCN(CC(=O)O)CCN(CC(=O)O)CC2)CC1)C(C)(C)C)C(=O)N1CSC[C@H]1C(N)=O [[^177Lu]Lu-LW01110, metal not drawn]	0.99

Query: I am curious: what tissue to tissue ratio at 1 h value has been reported for CC(C)C[C@H](NC(=O)[C@H](Cc1cnc[nH]1)N(C)C(=O)CNC(=O)[C@@H](NC(=O)[C@H](C)NC(=O)[C@H](Cc1c[nH]c2ccccc12)NC(=O)[C@H](Cc1c[nH]cn1)NC(=O)[C@@H](Cc1ccccc1)NC(=O)CN1CCC(NC(=O)CN2CCN(CC(=O)O)CCN(CC(=O)O)CCN(CC(=O)O)CC2)CC1)C(C)(C)C)C(=O)N1CSC[C@H]1C(N)=O [[^177Lu]Lu-LW01142, metal not drawn] ({DOTA}-[X1][dF]HWA[Tle]G[NMeH]L[Thz]-NH2) ?
Response: 3.06
